# assayComment: self-splicing fitness, log relative to wild type (ln ratio); higher = more splicing; Tetrahymena group I intron in knt gene, E. coli kanamycin selection, DiMSum; sequences stand for … in CUCUCU…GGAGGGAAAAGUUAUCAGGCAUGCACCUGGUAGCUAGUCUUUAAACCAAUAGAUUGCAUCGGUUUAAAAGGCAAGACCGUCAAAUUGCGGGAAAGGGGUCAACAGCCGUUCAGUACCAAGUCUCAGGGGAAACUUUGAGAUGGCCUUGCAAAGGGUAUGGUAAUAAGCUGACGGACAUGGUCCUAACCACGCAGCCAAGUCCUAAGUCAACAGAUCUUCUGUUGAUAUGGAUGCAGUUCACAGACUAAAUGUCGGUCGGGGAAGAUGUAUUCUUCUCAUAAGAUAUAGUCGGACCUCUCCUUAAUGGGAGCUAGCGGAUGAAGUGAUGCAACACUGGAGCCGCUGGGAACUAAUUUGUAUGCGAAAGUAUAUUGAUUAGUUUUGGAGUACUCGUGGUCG;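 further: selection with 25 µg/mL kanamycin versus none on LB agar overnight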
# conditions: 37 °C
readoutKind: self-splicing fitness (ln)
When you answer, write just the number.

// worked examples, self-splicing fitness (ln) included
Sample `ACCUAGCAAUAUUACGCUCG` ; self-splicing fitness (ln) observed: -1.48

// self-splicing fitness (ln) value for `AAACAGCAAUAUUACGUGUC` : -2.78

self-splicing fitness (ln) reading for `GUUAAGCAAUAUUACGGUUC` : -0.156

Others:
Short answer for `CUUAAGCAAUAUUACGCCGG` : self-splicing fitness (ln) was -1.85

Lab book: self-splicing fitness (ln) of `AAACAGCAAUAUUACGCAGA` noted as -1.42

For this sequence ( `CAUCAGCAAUAUUACGUUCU` ), measured self-splicing fitness (ln) is -3.32

So for `ACUGAGCAAUAUUACGGCUC` , the logged self-splicing fitness (ln) turned out to be -1.73

Consider `GGCCAGCAAUAUUACGCCCA` . Its measured self-splicing fitness (ln) is -0.809

self-splicing fitness (ln) in this record for `CCCCAGCAAUAUUACGUGAU` : -2.96

response.value for `CGAUAGCAAUAUUACGUGGU` (field: self-splicing fitness (ln)) = -1.94

`CUGCAGCAAUAUUACGGCAC` has a reported self-splicing fitness (ln) of -0.857

sequence `GUCCAGCAAUAUUACGAACG` , self-splicing fitness (ln) observed: -0.855

Per the records, this sequence ( `UUACAGCAAUAUUACGUAGG` ) has self-splicing fitness (ln) equal to -1.19

----------
# assayComment: self-splicing fitness, log relative to wild type (ln ratio); higher = more splicing; Tetrahymena group I intron in knt gene, E. coli kanamycin selection, DiMSum; sequences stand for … in CUCUCU…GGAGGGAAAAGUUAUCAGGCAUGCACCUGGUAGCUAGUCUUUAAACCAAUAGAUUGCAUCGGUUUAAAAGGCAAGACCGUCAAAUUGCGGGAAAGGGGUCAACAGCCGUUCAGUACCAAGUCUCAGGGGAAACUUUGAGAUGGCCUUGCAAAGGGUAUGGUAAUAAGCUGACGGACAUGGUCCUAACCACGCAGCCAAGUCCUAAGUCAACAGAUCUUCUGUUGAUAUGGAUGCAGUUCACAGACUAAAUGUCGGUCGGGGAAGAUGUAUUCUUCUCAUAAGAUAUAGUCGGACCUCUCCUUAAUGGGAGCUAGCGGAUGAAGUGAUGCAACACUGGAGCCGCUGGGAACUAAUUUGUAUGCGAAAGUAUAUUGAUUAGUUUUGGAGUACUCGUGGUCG
# conditions: 37 °C
readoutKind: self-splicing fitness (ln)
Could you keep your reply to the number by itself?

Past entries and their recorded results:
Please fill in: self-splicing fitness (ln) reported for `AAGAAGCAAUAUUACGAUUA` = 0.095

The value of self-splicing fitness (ln) measured for the sequence `ACCGAGCAAUAUUACGUAGG` turned out to be -2.79

Reported self-splicing fitness (ln) for `CAACAGCAAUAUUACGGACU` was -1.33

Here is another sequence to look at.
Reported self-splicing fitness (ln) ( `CACCAGCAAUAUUACGUAUG` ) = -0.105
